Exercise: state measured growth for each of the compounds provided.
Test system: NCI-H23 lung
PROTOCOL_DETAILS: NCI-60 one-dose screen, 48 h (100 = growth as untreated, 0 = no growth, -100 = all killed)
ASSAY_SETUP: 10 µM unless noted
Compounds without any hit were thinned out: in the full panel of roughly 83,000, 20% have a hit.
Give bare numbers, in %.

Example entries begin here.
{"COMPOUND": "CCOC(=O)C1=C(C)N=C2SC=C(c3ccc(F)cc3)N2[C@H]1c1cn(-c2ccccc2)nc1-c1ccc(Cl)cc1", "EXPERIMENTAL_TARGET": "NCI-H23 lung", "UNIT_SPEC": "%", "TEST_VALUE": 102}
{"COMPOUND": "O=C(CN1C(=O)S/C(=C\\C(Cl)=C\\c2ccccc2)C1=O)NCCCn1ccnc1", "EXPERIMENTAL_TARGET": "NCI-H23 lung", "UNIT_SPEC": "%", "TEST_VALUE": 24}
{"COMPOUND": "Cc1cccc(-c2nnc(SCC(=O)Nc3ncc(Cc4ccccc4)s3)n2N2C(=O)CSC2=S)c1", "EXPERIMENTAL_TARGET": "NCI-H23 lung", "UNIT_SPEC": "%", "TEST_VALUE": 36.7}
{"COMPOUND": "COc1ccc(N2CCN(S(=O)(=O)c3oc(-c4ccccc4)nc3C#N)CC2)cc1", "EXPERIMENTAL_TARGET": "NCI-H23 lung", "UNIT_SPEC": "%", "TEST_VALUE": 57.3}
{"COMPOUND": "C[C@@H]1CC[C@@H]2[C@@H]1[C@H](OC(=O)/C=C/c1ccccc1)[C@]1(c3ccccc3)C[C@@H](NC(=O)CO)[C@@]2(C)O1", "EXPERIMENTAL_TARGET": "NCI-H23 lung", "UNIT_SPEC": "%", "TEST_VALUE": 97.7}

Give growth for all compounds that follow.
1. COc1ccc(C(c2cc(OC)c(OC)c(OC)c2)n2ccnc2)cc1O (stereo unspecified)
2. COc1cccc(NC(=O)c2sc3nc(C)c(C(O)c4ccccc4)cc3c2N)c1 (stereo unspecified)
3. COc1cc(NS(=O)(=O)C(C)C)cc(-c2cc(-c3ccc(N4CCNCC4)cc3)cnc2N)c1
4. C=C1CC[C@@H]2[C@](C)(COC(C)=O)[C@H](OC(C)=O)CC[C@@]2(C)[C@@H]1CC(Nc1ccc(S(=O)(=O)Nc2nccs2)cc1)C1=CCOC1=O (stereo partly specified)
5. CCCCCCCCCCCCCCCC(=O)O[C@@H]1[C@@H](O)[C@@H](O)C([C@H](NC(=O)[C@@H]2C[C@@H](CCC)CN2C)[C@H](C)Cl)O[C@@H]1SC (stereo partly specified)
6. COc1ccc(Oc2nc(Nc3ccc(N4CCOCC4)cc3)ncc2NC(=O)c2cccc(C(F)(F)F)c2)cc1

1: 38.9; 2: 22.9; 3: 84.1; 4: 38.1; 5: 102; 6: 87.3

---

I'd appreciate it if you could supply growth values for the items below.
System: UACC-62 melanoma
PROTOCOL_DETAILS: NCI-60 one-dose screen, 48 h (100 = growth as untreated, 0 = no growth, -100 = all killed)
ASSAY_SETUP: 100 µM
About 83,000 compounds went through this panel and 20% of them were active in at least one assay; those are over-represented in the sample as a whole.
Answers are plain numbers, in %.

Go through the list and state growth for each entry.
1. CC(=O)/C=C/c1ccc(OCc2ccc(Cl)cc2)cc1
2. COc1ccc(C(=O)/C=C/c2ccc(OCc3ccc(Cl)cc3)cc2)cc1OC
3. COc1ccc(C(=O)/C=C/c2ccc(OCc3cccc(C(F)(F)F)c3)c(OC)c2)cc1OC
4. CC(=O)/C=C/c1ccc(OCc2ccc(C(C)(C)C)cc2)cc1
5. CC(=O)/C=C/c1ccc(N(C)Cc2ccc(C(C)(C)C)cc2)cc1

[24.6, 23.6, 20.7, -3.4, -57.1]

---

Tested on: MOLT-4 leukemia
PROTOCOL_DETAILS: NCI-60 one-dose screen, 48 h (100 = growth as untreated, 0 = no growth, -100 = all killed)
ASSAY_SETUP: 100 µM
The panel holds about 83,000 compounds, 20% with a hit somewhere; the sample as a whole holds those more often.
MEASURED_QUANTITY: growth (%)
Give bare numbers, in %.

Examples with their reported growth follow.
{"STRUCTURE_AS_SMILES": "O=C(/C=C/c1cccc(Oc2ccc(Cl)cc2)c1)c1ccccc1", "UNIT_SPEC": "%", "growth": -2.97}
{"STRUCTURE_AS_SMILES": "CC(=O)/C=C/c1ccc(N(C)Cc2ccc(C(C)(C)C)cc2)cc1", "UNIT_SPEC": "%", "growth": -38.9}

Field: growth. Fill in for each record below.
1. CC(=O)/C=C/c1ccc(OCc2ccc(C(C)(C)C)cc2)cc1
2. CC(=O)/C=C/c1ccc(N(CCO)Cc2ccc(C(C)(C)C)cc2)cc1
3. CCN(Cc1ccccc1)c1ccc(/C=C2\COc3ccccc3C2=O)cc1

1: 13.1; 2: -47.4; 3: 10.5

---

Test system: SW-620 colon
PROTOCOL_DETAILS: NCI-60 one-dose screen, 48 h (100 = growth as untreated, 0 = no growth, -100 = all killed)
ASSAY_SETUP: 10 µM unless noted
Experimental: Growth inhibition of the SW-620 human tumor cell line is measured as a screen for anti-cancer activity. Cells are grown in 96 well plates and exposed to the test compound for 48 hours. Compounds are tested at a single concentration, which is 10^-5 M for most compounds. The reported endpoint is percent growth (GI% or GIPRCNT), where numbers from 0 - 100% represent growth inhibition, and numbers from -100% - 0 represent cell death. For example, a value of 40 represents 60% growth inhibition. […]
About 83,000 compounds went through this panel and 20% of them were active in at least one assay; those are over-represented in the sample as a whole. Activity calls are given as the source filed them. How the source made its calls: active means growth percent below 10; inactive means the rest.
Provide the recorded growth for the entries that follow.

{"COMPOUND": "C=C(CN1CC=CCC1)[C@@H]1CC[C@]2(COC(C)=O)CC[C@]3(C)[C@H](CC[C@@H]4[C@@]5(C)CC[C@H](O)C(C)(C)[C@@H]5CC[C@]43C)[C@@H]12", "growth": "97.4% (inactive)"}
{"COMPOUND": "Cc1ccc(-c2nc(C#N)c(S(=O)(=O)N(C)C)o2)cc1", "growth": "81% (inactive)"}
{"COMPOUND": "CN1C(=O)N(C)C2(c3ccccc3)N(CC(=O)Nc3ccccc3O)C(=O)NC12c1ccccc1 (centres undefined)", "growth": "97.4% (inactive)"}

Recall the recorded growth for COc1ccc(C(=O)N/N=C/c2ccc(O)cc2O)cc1Nc1ccnc(C(F)(F)F)c1 with SW-620 colon and state it.
35.8% (inactive)

---

Test system: NCI-H460 lung
PROTOCOL_DETAILS: NCI-60 one-dose screen, 48 h (100 = growth as untreated, 0 = no growth, -100 = all killed)
ASSAY_SETUP: 10 µM unless noted
Procedure: Growth inhibition of the NCI-H460 human Non-Small Cell Lung tumor cell line is measured as a screen for anti-cancer activity. Cells are grown in 96 well plates and exposed to the test compound for 48 hours. Compounds are tested at a single concentration, which is 10^-5 M for most compounds. The reported endpoint is percent growth (GI% or GIPRCNT), where numbers from 0 - 100% represent growth inhibition, and numbers from -100% - 0 represent cell death. […]
Compounds without any hit were thinned out: in the full panel of roughly 83,000, 20% have a hit.
MEASURED_QUANTITY: growth (%)
Numbers only, in %.

{"MOLECULE": "O=C1/C(=C/c2cn(-c3ccccc3)nc2-c2ccccc2)SC(=S)N1c1ccc(Cl)cc1", "UNIT_SPEC": "%", "TEST_VALUE": 47.5}
{"MOLECULE": "CN1CCN(c2ccc(/C=C/C(=O)c3ccc(O)cc3)cc2)CC1", "UNIT_SPEC": "%", "TEST_VALUE": 101}
{"MOLECULE": "COc1ccc(S(=O)(=O)Nc2cc(Sc3cccc4cccnc34)c(O)c3ccccc23)cc1", "UNIT_SPEC": "%", "TEST_VALUE": 4.45}
{"MOLECULE": "CCCCC#Cc1c(/C=C(\\CCCC)SCC)n(C)c(=O)[nH]c1=O", "UNIT_SPEC": "%", "TEST_VALUE": 93.8}

Okay, here is my list. What is growth for each of these?
1. O=C1OCC2=C1C(c1cccc([N+](=O)[O-])c1)c1cc3c(cc1N2CCO)CCC3 (centres undefined)
2. CC1(Cc2ccccc2)CC2=C(C(=O)O1)C(c1ccccc1)NC(=O)N2 (centres undefined)
3. CC1(C)C(N)=Nc2cc(OCCCN3Cc4ccc(OCCc5cn(CC(=O)N6CCC(CCN7CCCC7)CC6)nn5)cc4C3)c(OCC3CC3)cc21
4. [2H]C([2H])([2H])Oc1cc(F)ccc1/C=C/C(=O)/C=C(/C=C/c1ccc(F)cc1OC([2H])([2H])[2H])OB(F)F
5. COc1ccc(N2CCN(S(=O)(=O)c3oc(-c4ccccc4)nc3C#N)CC2)cc1

[3.63, 110, 105, 49.7, 94.8]
